test system: cocklebur; assay: Test B pre-/postemergence herbicide test; assay type: in vivo, Xanthium strumarium; conditions: 500 g ai/ha; visual rating 0-100, 0 no effect, 100 complete control; preemergence

| Mol | Assayed System | Plant response rating, Cocklebur |
| --- | --- | --- |
| CCOC(=O)c1cc(NC(=O)c2cc(C(C)(C)C)nn2CC)ccc1C | cocklebur | 0 |
| CCON=C(C)c1cccc(NC(=O)c2cc(C(C)(C)C)nn2C)c1 | cocklebur | 0 |
| CCNC(=O)c1cccc(NC(=O)c2sc(C(C)(C)C)nc2CC)c1 | cocklebur | 40 |

====

Quick list: Goosegrass plant response rating per entry.
tested on: goosegrass; assay: Test C pre-/postemergence herbicide test; type: in vivo, Eleusine indica; settings: Preemergence, 500 g ai/ha; scale 0 to 100, 0 no effect, 100 complete control
Assay Readout: Goosegrass plant response rating

| Mol | Measured |
| --- | --- |
| CCNC(=O)c1ccc(F)c(NC(=O)c2cc(C(C)(C)C)nn2CC)c1 | 100 |
| C#CCNC(=O)c1cccc(NC(=O)c2cc(C(C)(C)C)nn2CC)c1 | 100 |
| CCn1nc(C(C)(C)C)cc1C(=O)Nc1cccc2c1CN(C)C2=O | 95 |
| CCCN1CCc2c(NC(=O)c3cc(C(C)(C)C)nn3CC)cccc2C1=O | 80 |
